target: BRD3 (Homo sapiens, UniProt Q15059)
Construct: HiBiT, is appended to the N-terminus of endogenous BRD2, BRD3, and BRD4; endogenous in cells
Sequence (Q15059 whole entry): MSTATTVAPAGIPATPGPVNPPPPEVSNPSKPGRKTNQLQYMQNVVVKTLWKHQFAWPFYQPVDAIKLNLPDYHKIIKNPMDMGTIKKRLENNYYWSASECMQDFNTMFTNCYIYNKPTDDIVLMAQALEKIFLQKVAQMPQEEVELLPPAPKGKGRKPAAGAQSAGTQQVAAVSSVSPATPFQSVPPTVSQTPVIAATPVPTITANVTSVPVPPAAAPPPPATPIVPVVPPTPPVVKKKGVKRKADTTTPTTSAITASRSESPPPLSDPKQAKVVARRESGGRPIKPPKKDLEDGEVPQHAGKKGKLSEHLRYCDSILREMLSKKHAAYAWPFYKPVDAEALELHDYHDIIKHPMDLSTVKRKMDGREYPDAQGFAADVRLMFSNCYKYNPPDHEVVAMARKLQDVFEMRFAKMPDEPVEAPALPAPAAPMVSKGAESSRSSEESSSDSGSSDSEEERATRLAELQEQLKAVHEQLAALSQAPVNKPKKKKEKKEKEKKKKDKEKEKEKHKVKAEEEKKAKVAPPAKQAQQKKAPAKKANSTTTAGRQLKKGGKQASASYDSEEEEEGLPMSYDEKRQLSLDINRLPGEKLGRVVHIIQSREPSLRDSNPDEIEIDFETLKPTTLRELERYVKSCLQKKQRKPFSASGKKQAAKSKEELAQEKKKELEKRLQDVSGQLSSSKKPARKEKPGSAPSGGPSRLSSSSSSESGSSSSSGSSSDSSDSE
assay.name: Live cell kinetic HiBiT degradation assay, HiBiT-BRD3 HEK293 cells
Type: cell-based
reported.conditions: HiBiT-BRD3 CRISPR knock-in HEK293 cells, live cell kinetic degradation, 24 h; read-out: Dmax 50 BRD3
Excerpt: HEK293 HiBiT-BRD2 (LgBiT stable), HEK293 HiBiT-BRD3 (LgBiT stable), and HEK293 HiBiT-BRD4 (LgBiT stable) were created using CRISPR/Cas9 to insert at HiBiT tag at the N-terminal genomic loci of BRD2, BRD3, or BRD4 in a cell line stably expressing LgBiT protein as described previously.[23] […]
endpoint: DC50 (nM)
Response body: numeric value in nM, unit text excluded.

Below: 3 molecules and their reported DC50.
Cc1ncsc1-c1ccc(CNC(=O)[C@@H]2C[C@@H](O)CN2C(=O)[C@@H](NC(=O)COCC(C)(COCCOCCOCCNc2cc3c(cc2F)C(=O)N(C2CCC(=O)NC2=O)C3=O)COCCOCCOC(=O)C[C@@H]2N=C(c3ccc(Cl)cc3)c3c(sc(C)c3C)-n3c(C)nnc32)C(C)(C)C)cc1 (mixture of isomers) :: 1.2
Cc1ncsc1-c1ccc(CNC(=O)[C@@H]2C[C@@H](O)CN2C(=O)[C@@H](NC(=O)COCC(C)(COCCOCCOCCOC(=O)C[C@@H]2N=C(c3ccc(Cl)cc3)c3c(sc(C)c3C)-n3c(C)nnc32)COCCOCCOCCN2CCN(c3cc4c(cc3F)C(=O)N(C3CCC(=O)NC3=O)C4=O)CC2)C(C)(C)C)cc1 (mixture of isomers) :: 1.7
Cc1ncsc1-c1ccc(CNC(=O)[C@@H]2C[C@@H](O)CN2C(=O)[C@@H](NC(=O)COCC(C)(COCCOCCNc2cc3c(cc2F)C(=O)N(C2CCC(=O)NC2=O)C3=O)COCCOCCOCCOC(=O)C[C@@H]2N=C(c3ccc(Cl)cc3)c3c(sc(C)c3C)-n3c(C)nnc32)C(C)(C)C)cc1 (mixture of isomers) :: 1.9

Input line: Hello, please tell me recorded DC50 for this one: Cc1ncsc1-c1ccc(CNC(=O)[C@@H]2C[C@@H](O)CN2C(=O)[C@@H](NC(=O)COCC(C)(COCCOCCOCCNC(=O)C[C@@H]2N=C(c3ccc(Cl)cc3)c3c(sc(C)c3C)-n3c(C)nnc32)COCCOCCOCCNc2cccc3c2C(=O)N(C2CCC(=O)NC2=O)C3=O)C(C)(C)C)cc1 (stereo partly shown)
Output line: 23

Input line: Given Cc1ncsc1-c1ccc(CNC(=O)[C@@H]2C[C@@H](O)CN2C(=O)[C@@H](NC(=O)COCC(C)(COCCOCCOCCNc2cc3c(cc2F)C(=O)N(C2CCC(=O)NC2=O)C3=O)COCCOCCOCCOC(=O)C[C@@H]2N=C(c3ccc(Cl)cc3)c3c(sc(C)c3C)-n3c(C)nnc32)C(C)(C)C)cc1 (mixture of isomers) , respond with its DC50.
Output line: 1.5

Input line: Give DC50 for the following molecule: Cc1ncsc1-c1ccc(CNC(=O)[C@@H]2C[C@@H](O)CN2C(=O)[C@@H](NC(=O)COCC(C)(COCCOCCNC(=O)C[C@@H]2N=C(c3ccc(Cl)cc3)c3c(sc(C)c3C)-n3c(C)nnc32)COCCOCCNc2cccc3c2C(=O)N(C2CCC(=O)NC2=O)C3=O)C(C)(C)C)cc1 (stereo partly shown)
Output line: 21

Input line: // fetch DC50 given entry Cc1ncsc1-c1ccc(CNC(=O)[C@@H]2C[C@@H](O)CN2C(=O)[C@@H](NC(=O)COCC(C)(COCCOCCNc2cc3c(cc2F)C(=O)N(C2CCC(=O)NC2=O)C3=O)COCCOCCOC(=O)C[C@@H]2N=C(c3ccc(Cl)cc3)c3c(sc(C)c3C)-n3c(C)nnc32)C(C)(C)C)cc1 (mixture of isomers)
Output line: 3

All figures here come from paper PMC11638965.
